test: viability loss with induced miR-34 in A549 – imaging, A549 dox-inducible miR-34, nuclei and caspase counts, primary screen (AID 1347080); settings: A549 miR-34 inducible, Hoechst nuclei count, 48 h; measured here: relative caspase fold change +Dox/-Dox; further: test concentration not given here
Respond with 1 for fold change values of 1 and above, 0 for values below.

Input: Could you tell me if the measured fold change of CCc1cccc2c3c([nH]c12)[C@](CC)(CC(=O)O)OCC3 reaches 1 or more?
Output: 0

Input: Could you tell me if the measured fold change of CC(O)=C(C#N)C(=O)Nc1ccc(C(F)(F)F)cc1 reaches 1 or more?
Output: 1

Input: Could you tell me if the measured fold change of O=C(O)CNC(=O)c1cccc(O)c1 reaches 1 or more?
Output: 0

Input: Could you tell me if the measured fold change of COC1C=CO[C@]2(C)Oc3c(C)c(O)c4c(O)c(c5c(nc6cc(C)ccn65)c4c3C2=O)NC(=O)C(C)=CC=CC(C)C(O)C(C)C(O)C(C)C(OC(C)=O)C1C (stereo not given in full) reaches 1 or more?
Output: 1

Input: Could you tell me if the measured fold change of Nc1c(S(=O)(=O)O)cc(Nc2ccc(Nc3nc(Cl)nc(Nc4ccc(S(=O)(=O)O)cc4)n3)c(S(=O)(=O)O)c2)c2c1C(=O)c1ccccc1C2=O reaches 1 or more?
Output: 0

Input: Could you tell me if the measured fold change of COc1ncccc1-c1cnn(CC(=O)Nc2cc(-c3ccccn3)nn2C)c1 reaches 1 or more?
Output: 0

Input: Could you tell me if the measured fold change of CC(=O)Nc1cccc(-c2nn(CC(=O)Nc3cnn(C)n3)c3ccccc23)c1 reaches 1 or more?
Output: 1

Input: Could you tell me if the measured fold change of CN1CCCN(C(=O)c2cccc(-c3ccc(C=C4C(=O)Nc5ccc(Cl)cc54)o3)c2)CC1 reaches 1 or more?
Output: 1

Input: Could you tell me if the measured fold change of C[N+](C)(C)CC=O reaches 1 or more?
Output: 1

Input: Could you tell me if the measured fold change of CC(NC(=O)OCc1ccccc1)C(=O)O (stereo not given) reaches 1 or more?
Output: 0

Input: Could you tell me if the measured fold change of COc1ccc(NC(=O)/C=C/c2ccc(Cl)cc2)cc1 reaches 1 or more?
Output: 0

Input: Could you tell me if the measured fold change of Oc1ccccc1O reaches 1 or more?
Output: 1

Input: Could you tell me if the measured fold change of COc1cc(C(O)C(=O)O)ccc1O (stereo not given) reaches 1 or more?
Output: 1

Input: Could you tell me if the measured fold change of O=C(OC1C(Oc2ccccc2COC(=O)C2(O)C=CCCC2=O)OC(CO)C(O)C1O)c1ccccc1 (stereo not given) reaches 1 or more?
Output: 1

Input: Could you tell me if the measured fold change of CCCCCCC/C=C\CCCCCCCCC(=O)O reaches 1 or more?
Output: 0

Input: Could you tell me if the measured fold change of CCCCCCCCCCCCCCCC(=O)N[C@H](CN1CCOCC1)[C@H](O)c1ccccc1 reaches 1 or more?
Output: 1

Input: Could you tell me if the measured fold change of Cn1ncc(S(=O)(=O)Cc2ccccc2)c(Br)c1=O reaches 1 or more?
Output: 1

Input: Could you tell me if the measured fold change of CNc1ncnc2c1ncn2[C@H]1C[C@H](OP(=O)(O)O)[C@@H](COP(=O)(O)O)O1 reaches 1 or more?
Output: 1

Input: Could you tell me if the measured fold change of CN([C@@H](Cc1ccc(OS(=O)(=O)c2cccc3cnccc23)cc1)C(=O)N1CCN(c2ccccc2)CC1)S(=O)(=O)c1cccc2cnccc12 reaches 1 or more?
Output: 1

Input: Could you tell me if the measured fold change of CC(C)(C)NC[C@@H](O)COc1cccc2c1CCCC2=O reaches 1 or more?
Output: 1

Input: Could you tell me if the measured fold change of CC1(C)CC(=O)c2c(N)ncnc2C1 reaches 1 or more?
Output: 0

Input: Could you tell me if the measured fold change of COC(=O)C1=COC(OC2OC(CO)C(O)C(O)C2O)[C@H]2C(CO)=CC[C@H]12 (stereo not given in full) reaches 1 or more?
Output: 0

Input: Could you tell me if the measured fold change of CCC(=O)OCC(=O)C1(OC(=O)CC)[C@H](C)C[C@H]2[C@H]3[C@H]([C@@H](O)C[C@@]21C)[C@@]1(C)C=CC(=O)C=C1C[C@H]3Cl (stereo not given in full) reaches 1 or more?
Output: 1

Input: Could you tell me if the measured fold change of CC(C)c1cc(-c2ccc(F)c3ccccc23)nc(N)n1 reaches 1 or more?
Output: 0

Input: Could you tell me if the measured fold change of Cc1nsc(NC(=O)NC2Cc3ccccc3C2)n1 reaches 1 or more?
Output: 1

Input: Could you tell me if the measured fold change of C=C/C(C)=C/[C@@]1(C)SC(=O)C(C)=C1O reaches 1 or more?
Output: 1

Input: Could you tell me if the measured fold change of N[C@H](C(=O)O)[C@H](Cc1ccccc1)C(=O)O reaches 1 or more?
Output: 1

Input: Could you tell me if the measured fold change of COc1cc2ncnc(Sc3nnc(C)s3)c2cc1OC reaches 1 or more?
Output: 0

Input: Could you tell me if the measured fold change of CCC(=O)OC1(C(=O)CCl)[C@@H](C)C[C@H]2[C@@H]3CCC4=CC(=O)C=C[C@]4(C)[C@@]3(F)[C@@H](O)C[C@@]21C (stereo not given in full) reaches 1 or more?
Output: 1

Input: Could you tell me if the measured fold change of Cc1c(O)cccc1C(=O)NC(CSc1ccccc1)C(O)CN1C[C@H]2CCCC[C@H]2CC1C(=O)NC(C)(C)C (stereo not given in full) reaches 1 or more?
Output: 0

Input: Could you tell me if the measured fold change of CN(C)Cc1cn(CC2CCN(C(=O)c3ccc4c(c3)OCO4)CC2)nn1 reaches 1 or more?
Output: 1

Input: Could you tell me if the measured fold change of CC[C@]1(O)C[C@H]2CN(CCc3c([nH]c4ccccc34)[C@@](C(=O)OC)(c3cc4c(cc3OC)N(C)[C@@H]3C45CCN4CC=C[C@@](CC)(C(OC(C)=O)[C@]3(O)C(=O)OC)[C@H]45)C2)C1 (stereo not given in full) reaches 1 or more?
Output: 0

Input: Could you tell me if the measured fold change of CC1(C)S[C@@H]2C(NC(=O)C(C(=O)O)c3ccccc3)C(=O)N2C1C(=O)O (stereo not given in full) reaches 1 or more?
Output: 0

Input: Could you tell me if the measured fold change of N.N.N.N.N.N.N.N.N.N.N.N.N.N.O.O.[Cl-].[Cl-].[Cl-].[Cl-].[Cl-].[Cl-].[Ru+4].[Ru+5].[Ru+5] reaches 1 or more?
Output: 0

Input: Could you tell me if the measured fold change of O=c1cc(-c2ccncc2)nc(-c2cccc(CN3CCCC(CO)C3)c2)[nH]1 (stereo not given) reaches 1 or more?
Output: 0

Input: Could you tell me if the measured fold change of Cc1cn(C2CC(N=[N+]=[N-])C(CO)O2)c(=O)[nH]c1=O (stereo not given) reaches 1 or more?
Output: 1

Input: Could you tell me if the measured fold change of Cc1cc(C)nc(-c2cnn(CC(=O)Nc3cc(C)nn3-c3ccccn3)c2)n1 reaches 1 or more?
Output: 1

Input: Could you tell me if the measured fold change of Cc1cnc(NC(=O)Nc2cc(Br)c(C)cc2OCC2CNCCO2)cn1 (stereo not given) reaches 1 or more?
Output: 0

Input: Could you tell me if the measured fold change of NC(=O)c1ncn(C2OC(CO)C(O)C2O)c1N (stereo not given) reaches 1 or more?
Output: 0
